# Test system: Rattus norvegicus
# MEASUREMENT_NOTES: Antiinflammatory activity in Wister albino rat assessed as inhibition of carrageenan-induced paw edema at 50 mg/kg, ip administered 1 hr before carrageenan challenge measured after 4 hrs by plethysmometer relative to indomethacin
# Format: functional
# MEASUREMENT_CONTEXT: route intraperitoneal
MEASUREMENT_LABEL: inhibition in vivo at 50 mg/kg

SUBSTANCE_SMILES	RESULT_VALUE
CCOC(=O)c1c(-c2ccc(Cl)cc2)cc(-c2ccccc2)nc1Nc1ccccc1	123%
CCOC(=O)c1c(-c2ccc(Cl)cc2)cc(-c2ccccc2)nc1N1CCOCC1	120%
CCOC(=O)c1c(-c2ccc(Cl)c(Cl)c2)cc(-c2ccccc2)nc1Nc1ccc(C)cc1	87.9%
CCOC(=O)c1c(-c2ccc(Cl)c(Cl)c2)cc(-c2ccccc2)nc1Nc1ccc(Cl)cc1	91.8%
CCOC(=O)c1c(-c2ccc(Cl)cc2)cc(-c2ccccc2)nc1N1CCCCC1	103%
